Biological target: murine IL-21R expressed on cells (murine, UniProt Q9JHX3 20-529)
Sequence (Q9JHX3 20-529 limits assumed): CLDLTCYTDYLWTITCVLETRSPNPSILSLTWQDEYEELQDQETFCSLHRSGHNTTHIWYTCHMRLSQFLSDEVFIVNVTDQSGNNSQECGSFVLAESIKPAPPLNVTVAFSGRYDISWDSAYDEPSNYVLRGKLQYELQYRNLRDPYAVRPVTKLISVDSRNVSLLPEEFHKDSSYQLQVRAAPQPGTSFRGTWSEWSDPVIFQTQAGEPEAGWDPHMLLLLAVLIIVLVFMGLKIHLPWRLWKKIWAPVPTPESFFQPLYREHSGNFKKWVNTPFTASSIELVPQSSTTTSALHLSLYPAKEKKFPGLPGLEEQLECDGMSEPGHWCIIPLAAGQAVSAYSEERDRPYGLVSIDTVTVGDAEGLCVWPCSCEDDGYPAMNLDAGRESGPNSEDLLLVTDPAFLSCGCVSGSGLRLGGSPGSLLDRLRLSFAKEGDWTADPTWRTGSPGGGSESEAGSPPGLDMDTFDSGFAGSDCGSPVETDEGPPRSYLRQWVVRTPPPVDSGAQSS
Assay: cell-based or functional assay
measuredEndpoint: IC50 (nM) in Murine IL-21R-BaF3 Neutralization Assay

>>> recordedresult("scFv L6 (scFv) scFv: QVQLQESGPGLVKTSETLSLTCAVSGYSISSGYYWGWIRQPPGKGLEWIGSISHTGNTYYNPPLKSRVTISVDTSKNQFSLKLSSVTAADTAVYYCARGGGISRPEYWGKGTLVTVSSGGGGSGGGGSGGGGSALSSELTQDPPVSVALGQTVTLTCQGDSLRTYYASWYQQKSGQAPILLLYGKHKRPSGIPDRFSGSTSGDTASLTITGAQAEDEADYYCMSRSIWGNPHVLFGGGTQLTVL")
"0.29 nM"
